Hey, just so you know, these numbers are from patent US10517889B2.

- Tested on: human SMAD7 mRNA
- Experiment notes: Dose-dependent inhibition of human SMAD7 mRNA expression in Hep3B cells (Example 3, Study 1 and 2)
- Type: cell-based
- Test settings: 740 nM, electroporation, approximately 16 hours, Study 2, relative to untreated control cells
Strand notation (5' to 3'): a small letter for the sugar, then the base; units joined by * are phosphorothioate-linked, units joined directly phosphodiester-linked; [ ] holds rarer units or linkages, { } end groups; capitals alone tell only the bases. k = constrained ethyl (cEt); [5mC] = 5-methylcytosine; d = 2'-deoxy (DNA)
Here, each record is paired with measured % inhibition of SMAD7 mRNA expression data.
Provide only the numeric value, understood in %.

Ask: Value lookup for % inhibition of SMAD7 mRNA expression; key = 799496 (antisense kG*kG*kG*dT*dG*dA*dG*dG*dT*dG*dG*d[5mC]*dT*kG*k[5mC]*kG) [compound 799496]
Reply: 3

Ask: Entry 772842 (kG*kT*kT*dA*dA*dT*dA*dA*dT*dA*dT*d[5mC]*dT*kT*k[5mC]*k[5mC]; antisense) [compound 772842] please
Reply: 3

Ask: Entry 799322 (antisense kG*kG*kA*dG*dG*dG*dT*dA*dT*dG*d[5mC]*dA*d[5mC]*kA*k[5mC]*kT) [compound 799322] please
Reply: 89

Ask: Entry 830028 (antisense k[5mC]*kA*kG*dT*d[5mC]*dA*dA*dG*dT*dT*dA*d[5mC]*dA*kG*kT*k[5mC]) [compound 830028] please
Reply: 54

Ask: Entry 799624 (kT*kG*kA*dA*dA*dG*dT*dA*d[5mC]*dA*dA*dT*d[5mC]*kT*k[5mC]*k[5mC]; antisense) [compound 799624] please
Reply: 2

***
Ask: Value lookup for % inhibition of SMAD7 mRNA expression; key = 830100 (kG*kG*kA*dG*d[5mC]*dT*d[5mC]*dA*dA*dA*d[5mC]*dT*dT*kT*kG*kA; antisense) [compound 830100]
Reply: 3

====

- Experiment notes: Hematology assays after oral gavage in CD-1 mice (Example 7)
- Type: in vivo
- Test settings: 500 mg/kg oral gavage once daily for 4 weeks
Here, each record is paired with measured Basophils data.

Ask: Value lookup for Basophils; key = 830025 (antisense TTTGTAAATCGAAAGC; 3-10-3 cEt gapmer, further chemistry not given here) [compound 830025]
Reply: 0.01 10^3/μL

Ask: Entry 830121 (AGAATCAAGCCCTGGC; 3-10-3 cEt gapmer, further chemistry not given here) [compound 830121] please
Reply: 0.01 10^3/μL

Ask: Entry 830037 (antisense CTATTGGCTGATCTGG; 3-10-3 cEt gapmer, further chemistry not given here) [compound 830037] please
Reply: 0.01 10^3/μL

Ask: Entry 798781 (CGTAAGATTCACAGCA; 3-10-3 cEt gapmer, further chemistry not given here) [compound 798781] please
Reply: 0.02 10^3/μL

Ask: Entry 829994 (GGAGGCAGGGCCGCGA; 3-10-3 cEt gapmer, further chemistry not given here) [compound 829994] please
Reply: 0.01 10^3/μL

Now consider the entry below.
Ask: Value lookup for Basophils; key = 790615 (CCAATGAGAATGCTTC; 3-10-3 cEt gapmer, further chemistry not given here) [compound 790615]
Reply: 0.01 10^3/μL

====

- Tested on: human SMAD7 mRNA
- Experiment notes: Dose-dependent inhibition of human SMAD7 mRNA expression in Hep3B cells (Example 3, Study 1 and 2)
- Format: cell-based
- Test settings: 1250.0 nM, electroporation, approximately 16 hours, Study 1
Strand notation (5' to 3'): a small letter for the sugar, then the base; units joined by * are phosphorothioate-linked, units joined directly phosphodiester-linked; [ ] holds rarer units or linkages, { } end groups; capitals alone tell only the bases. e = 2'-O-(2-methoxyethyl) (MOE); [5mC] = 5-methylcytosine; d = 2'-deoxy (DNA)
Quantity: % inhibition of SMAD7 mRNA expression (%)
Provide only the numeric value, understood in %.

Ask: Value lookup for % inhibition of SMAD7 mRNA expression; key = 771403 (antisense eG*eA*eA*e[5mC]*eA*dT*dG*dA*d[5mC]*d[5mC]*dT*d[5mC]*d[5mC]*dG*d[5mC]*eA*e[5mC]*eA*e[5mC]*e[5mC]) [compound 771403]
Reply: 4

Ask: Entry 771773 (antisense eT*e[5mC]*eT*eT*eT*dT*d[5mC]*dG*d[5mC]*dA*dT*d[5mC]*d[5mC]*dT*d[5mC]*eA*eG*eG*eA*eA) [compound 771773] please
Reply: 0

Ask: Entry 771345 (antisense eA*e[5mC]*eA*eG*e[5mC]*dA*dT*d[5mC]*dT*dG*dG*dA*d[5mC]*dA*dG*eT*e[5mC]*eA*eG*eT) [compound 771345] please
Reply: 19

Ask: Entry 771572 (antisense e[5mC]*eT*eT*eG*eG*dG*dA*d[5mC]*dT*dG*d[5mC]*dA*dA*dA*d[5mC]*e[5mC]*eT*e[5mC]*eT*e[5mC]) [compound 771572] please
Reply: 10

Ask: Entry 771944 (antisense eG*eG*eT*eA*eA*dT*dT*dT*dT*d[5mC]*d[5mC]*dT*d[5mC]*dA*dA*e[5mC]*eA*eG*eG*e[5mC]) [compound 771944] please
Reply: 34

***
Ask: Value lookup for % inhibition of SMAD7 mRNA expression; key = 771474 (antisense eG*e[5mC]*eA*eG*e[5mC]*d[5mC]*dG*dA*dT*dT*dT*dT*dG*d[5mC]*dT*e[5mC]*e[5mC]*eG*e[5mC]*eA) [compound 771474]
Reply: 4

====

Here, each record is paired with measured IC50 data.
- Tested on: murine Smad7 mRNA
- Experiment notes: Dose-dependent inhibition of murine Smad7 mRNA in bEND cells, electroporation (Example 5, Study 2)
- Format: cell-based, mouse
- Test settings: electroporation
Provide only the numeric value, understood in µM.

Ask: Value lookup for IC50; key = 790615 (CCAATGAGAATGCTTC; 3-10-3 cEt gapmer, further chemistry not given here) [compound 790615]
Reply: 7.3

Ask: Entry 830025 (antisense TTTGTAAATCGAAAGC; 3-10-3 cEt gapmer, further chemistry not given here) [compound 830025] please
Reply: 2.7

====

- System: human SMAD7 mRNA
- Experiment notes: Dose-dependent inhibition of human SMAD7 mRNA expression in Hep3B cells (Example 3, Study 1 and 2)
- Type: cell-based
- Test settings: 20000.0 nM, electroporation, approximately 16 hours, Study 2
Strand notation (5' to 3'): a small letter for the sugar, then the base; units joined by * are phosphorothioate-linked, units joined directly phosphodiester-linked; [ ] holds rarer units or linkages, { } end groups; capitals alone tell only the bases. k = constrained ethyl (cEt); [5mC] = 5-methylcytosine; d = 2'-deoxy (DNA)
Quantity: % inhibition of SMAD7 mRNA expression

Ask: Value lookup for % inhibition of SMAD7 mRNA expression; key = 799751 (antisense kG*kA*kG*d[5mC]*dT*dA*dA*dT*dG*dA*d[5mC]*dA*d[5mC]*kT*kG*kG) [compound 799751]
Reply: 65%

====

- Test system: human peripheral blood mononuclear cells (PBMCs)
- Experiment notes: Human PBMC activation assay, cytokine levels (IL-10, IL-6, MCP-1, TNF-α) in supernatant after 24 hours (Example 9)
- Test settings: human PBMC supernatant after 24 hours; 200 μM oligonucleotide
Quantity: Levels of IL-10
// return the numeric value with its unit appended

Record excerpt, results attached:
Ask: Value lookup for Levels of IL-10; key = 790615 (CCAATGAGAATGCTTC; 3-10-3 cEt gapmer, further chemistry not given here) [compound 790615]
Reply: 0.7 pg/mL

Ask: Entry 830121 (AGAATCAAGCCCTGGC; 3-10-3 cEt gapmer, further chemistry not given here) [compound 830121] please
Reply: 1.4 pg/mL

Now consider the entry below.
Ask: Value lookup for Levels of IL-10; key = 830037 (antisense CTATTGGCTGATCTGG; 3-10-3 cEt gapmer, further chemistry not given here) [compound 830037]
Reply: 3.8 pg/mL

====

Here, each record is paired with measured Mouse Smad7 mRNA expression (% inhibition), Colon data.
- Test system: mouse Smad7 mRNA
- Experiment notes: Murine Smad7 mRNA expression after subcutaneous administration in BALB/c mice (Example 10)
- Format: in vivo
- Test settings: 50 mg/kg subcutaneous once a week for 4 weeks, 24 hours after last dose, colon
Strand notation (5' to 3'): a small letter for the sugar, then the base; units joined by * are phosphorothioate-linked, units joined directly phosphodiester-linked; [ ] holds rarer units or linkages, { } end groups; capitals alone tell only the bases. k = constrained ethyl (cEt); [5mC] = 5-methylcytosine; d = 2'-deoxy (DNA)
Provide only the numeric value, understood in % inhibition.

Record excerpt, results attached:
Ask: API: value(readout=Mouse Smad7 mRNA expression (% inhibition), Colon, system=mouse Smad7 mRNA) for record ION 798781 (CGTAAGATTCACAGCA; 3-10-3 cEt gapmer, further chemistry not given here)
Reply: 41

Ask: Entry ION 790615: 3-10-3 (S)-cEt gapmer targeting human SMAD7; top lead compound (k[5mC]*k[5mC]*kA*dA*dT*dG*dA*dG*dA*dA*dT*dG*d[5mC]*kT*kT*k[5mC]) please
Reply: 71

Ask: Entry ION 830025 (antisense TTTGTAAATCGAAAGC; 3-10-3 cEt gapmer, phosphorothioate, further chemistry not given here) [sodium salt] please
Reply: 32

***
Ask: API: value(readout=Mouse Smad7 mRNA expression (% inhibition), Colon, system=mouse Smad7 mRNA) for record ION 736697: uniform deoxy phosphorothioate oligonucleotide GTCGCCCCTTCTCCCCGCAGC (SEQ ID NO: 2736), same sequence and chemistry as GED-0301 (Mongersen) (DNA, all phosphorothioate, methylation of C not given here) [reference compound]
Reply: 3
